System: Trypanosoma cruzi
Experiment: Trypanosoma cruzi phosphomannomutase and mannose-1-phosphate guanylyltransferase assay
Type: functional
Parameters: scale not given: direction of the effect not stated beside the values
Details: 10 µM
endpointLabel: Percent Effect (%)
Answer in %, number only, no unit symbol.

Ask: Would you kindly share the measured Percent Effect for N#Cc1cccnc1NCc1cccnc1N1CCC(C(N)=O)CC1 ?
Result: 0.293

Ask: Subsequent entry: c1ccc2oc(CCCN3CCCC3Cn3cncn3)nc2c1 (stereo unspecified)
Result: -1.02

Ask: Subsequent entry: Cc1ccccc1CCNC(=O)C1CC(=O)N(CC(F)(F)F)C1 (stereo unspecified)
Result: 1.42

Ask: Subsequent entry: FC(F)(F)C1CCCn2c(CNCc3ccsc3)nnc21 (stereo unspecified)
Result: 2.63

Ask: Subsequent entry: Fc1cccc(Oc2ccc(CNCC3CNc4ccnn4C3)cn2)c1 (stereo unspecified)
Result: 10.5

Ask: Subsequent entry: CCN1CCN(c2ncc(-c3cc(C)no3)c(-c3ccc(C)s3)n2)CC1
Result: -5.34

----------
Target: Arginase-2, mitochondrial (Homo sapiens) (UniProt P78540)
Sequence (P78540 whole entry): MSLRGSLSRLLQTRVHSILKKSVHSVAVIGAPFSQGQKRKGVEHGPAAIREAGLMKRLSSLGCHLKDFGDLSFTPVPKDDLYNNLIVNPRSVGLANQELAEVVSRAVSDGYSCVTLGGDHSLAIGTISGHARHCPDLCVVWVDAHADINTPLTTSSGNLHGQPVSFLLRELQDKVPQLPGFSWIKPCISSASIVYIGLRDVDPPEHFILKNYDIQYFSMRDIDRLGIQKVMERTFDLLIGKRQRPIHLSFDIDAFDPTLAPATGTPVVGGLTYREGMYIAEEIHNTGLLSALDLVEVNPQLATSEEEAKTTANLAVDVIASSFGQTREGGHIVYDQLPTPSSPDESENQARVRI
Test: in vitro enzyme assay to detect the production of urea directly proportional to the activity of Arginase II; also: in the data most compounds retested in dose-response had high values
Assay type: functional
Design: scale not given: direction of the effect not stated beside the values
Settings: 33.3 µM
Provide the reported Percent Effect of each item.
Answer in %, number only, no unit symbol.

Ask: Would you kindly share the measured Percent Effect for CCc1nccn1C1CCCN(C(=O)c2ccc(C(=O)NC)nc2)C1 (stereo not drawn) ?
Result: 4.63

Ask: Subsequent entry: CN1C(=O)C(C)(C)COc2cc(NS(=O)(=O)c3ccccc3)ccc21
Result: 2.27

Ask: Subsequent entry: CCCc1n[nH]c(C2CN(C(=O)c3cc(F)ccc3OC)CCO2)n1 (stereo not drawn)
Result: -2.52

Ask: Subsequent entry: Cc1nn(C)c(C)c1C1CCCN1C(=O)CCCn1cccn1 (stereo not drawn)
Result: 10.1

Ask: Subsequent entry: O=C1CC(c2ccccc2)C2(CCN(CC3CC3)CC2)N1 (stereo not drawn)
Result: -55

Ask: Subsequent entry: Cc1ccc(CC(=O)NC(C)C(=O)N2CCS(=O)(=O)CC2)cc1 (stereo not drawn)
Result: -1.91

Ask: Subsequent entry: COc1cccc(CNC(=O)CC2CSc3ncc(C)c(=O)n32)c1 (stereo not drawn)
Result: 3.23

Ask: Subsequent entry: Cc1csc(N2CCCN(C(=O)C3(C#N)CCCCC3)CC2)n1
Result: 0.766

Ask: Subsequent entry: CC1=Nc2c(c(=O)[nH]n2C(C)C)C(c2ccc(F)c(F)c2)S1 (stereo not drawn)
Result: 1.58

Ask: Subsequent entry: COc1ccc(C(=O)N2CCC(Nc3ccc(C)nn3)CC2)c(F)c1
Result: 2.8

Ask: Subsequent entry: CCn1nc(C(C)C)cc1C(=O)NCCCOC
Result: -1.77

Ask: Subsequent entry: O=C(NCCCn1cncn1)NCC(c1ccco1)N1CCCCC1 (stereo not drawn)
Result: 5.26

Ask: Subsequent entry: CCc1c(C)sc(NC(=O)CN2CCN(CC)CC2)c1C(=O)OC
Result: 0

Ask: Subsequent entry: Cc1nn(CC(C)C)c(N(C)C)c1CNCc1cccc2c1OCO2
Result: -12

Ask: Subsequent entry: O=C(NC[C@]12COC[C@H]1CN(Cc1nccs1)C2)N1CCCC1
Result: -7.92

Ask: Subsequent entry: CCCOCC(=O)NC1CCc2nc(C)cn2C1 (stereo not drawn)
Result: -9.47

Ask: Subsequent entry: CC(C)(C)OC(=O)N1CCN(C(=O)c2sccc2C2CC2)CC1
Result: 9.25

Ask: Subsequent entry: c1ccc(CC2CCN(Cc3ccnc(-c4cccnc4)n3)CC2)cc1
Result: 1.16

Ask: Subsequent entry: CC(C)COC(C)C(=O)NCc1ccc(N(C)C)cc1 (stereo not drawn)
Result: -2.32

Ask: Subsequent entry: CCn1ccc(C(=O)NCCCN2CCOCC2)n1
Result: -2.76

Ask: Subsequent entry: CS(=O)(=O)CCC(=O)Nc1cnn(-c2ccccc2Cl)c1
Result: -0.185

Ask: Subsequent entry: COc1cccc(CNC(=O)CN2CCCCC2Cn2cccn2)c1 (stereo not drawn)
Result: -0.21

Ask: Subsequent entry: CN(Cc1ccccc1F)C(=O)CS(=O)(=O)Cc1ccc(Cl)c(Cl)c1
Result: -8.21

Ask: Subsequent entry: N#CC1(C(=O)N2CCN(c3nccs3)CC2)CCCCC1
Result: 2.68

Ask: Subsequent entry: CCc1noc(C)c1C(=O)N1CCCC1c1c(C)nn(C)c1OC (stereo not drawn)
Result: -3.42

Ask: Subsequent entry: CCN1CCC2(CC1)CC(NC(=O)NC)c1cc(C)ccc12 (stereo not drawn)
Result: -56.5

Ask: Subsequent entry: CNC(=O)CS(=O)(=O)C1CCN(S(=O)(=O)C2CC2)CC1
Result: 1.36

Ask: Subsequent entry: Nc1nccc(NCc2cc3n(n2)CCCN(C2CCCCC2)C3)n1
Result: -1.2

Ask: Subsequent entry: Cc1csc(CNC(=O)N(C)Cc2cnn(C)c2)n1
Result: -4.25

Ask: Subsequent entry: Cc1nc(C)n(CC2CCCN(CC(=O)Nc3c(C)n[nH]c3C)C2)n1 (stereo not drawn)
Result: 0.766

Ask: Subsequent entry: Cc1cc(C)n(CC2CCCN2C(=O)CCCc2ccccn2)n1 (stereo not drawn)
Result: 2.68

Ask: Subsequent entry: CCc1cnc(N2C[C@H]3C[C@H](C(=O)N(C)C)[C@@H](C2)O3)nc1
Result: -53.6

Ask: Subsequent entry: CCc1nc(NS(=O)(=O)c2cc(C)ccc2F)no1
Result: 15.1

Ask: Subsequent entry: Cc1nnc(C(C)NCC2(c3ccc(Cl)cc3)CCCC2)o1 (stereo not drawn)
Result: -4.76

Ask: Subsequent entry: CCC1CN(Cc2ccccc2)CCN1Cc1nnc(C2CCC2)o1 (stereo not drawn)
Result: 5.91

Ask: Subsequent entry: COCc1nc(C(=O)N2CCCC2c2noc(C(C)C)n2)cs1 (stereo not drawn)
Result: 3.66

Ask: Subsequent entry: O=C1NC(c2ccccc2)=N[C@@]12CC[C@@H]1CN(Cc3ccccc3)C[C@@H]12
Result: -43.5

Ask: Subsequent entry: CC(O)CN(CC(=O)NC(=O)NCC(F)(F)F)c1ccccc1 (stereo not drawn)
Result: 1.9

Ask: Subsequent entry: CCN(C)c1ncnc2c1CCN(Cc1csc(C)n1)CC2
Result: 4.78

Ask: Subsequent entry: O=C(COCc1nc(-c2ccncc2)no1)NC1CCCCC1
Result: 0

Ask: Subsequent entry: CCn1ncc(CN2CCc3c(nc(-c4cccnc4)[nH]c3=O)C2)c1C
Result: 0.699

Ask: Subsequent entry: CC(=O)N(C)c1nc(CN2CCOC(Cn3cc(C)cn3)C2)cs1 (stereo not drawn)
Result: -6.95

Ask: Subsequent entry: O=C(CCCc1ncc(-c2ccccc2)o1)N1CCN(CCO)CC1
Result: 3.04

Ask: Subsequent entry: CC(C)(C)c1nnc(CN2CCCC(c3cc(C(N)=O)[nH]n3)C2)o1 (stereo not drawn)
Result: -10

Ask: Subsequent entry: COc1ccc(C2CCCN2C(=O)CCNc2ncccn2)cc1 (stereo not drawn)
Result: 5

Ask: Subsequent entry: CCc1ccc(C(=O)N2CCN(CC(C)O)CC2)o1 (stereo not drawn)
Result: 6.13

Ask: Subsequent entry: CCOCC(O)CN1CCN(C(=O)c2cc(F)ccc2C)CC1 (stereo not drawn)
Result: 0

Ask: Subsequent entry: CN(C)CC1CN(c2ncnc3[nH]ccc23)CCO1 (stereo not drawn)
Result: -1.94
